Sourced from PubChem BioAssay (NCATS)

- Target of assay: Retinaldehyde dehydrogenase 3 (Homo sapiens)
- Test summary: qHTS for Inhibitors of the Aldehyde Dehydrogenase Family (ALDH1A3) Primary screen (AID 2061315);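 further: plate controls were DMSO vehicle for no effect and reference inhibitor for full effect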
- Conditions: ALDH inhibition qHTS; series mostly up to 56 µM
Results filed as inconclusive are left out. Active and inactive are the calls of the source. The call rests on the fitted dose curve; in most records, active means well fitted inhibition curve with a large enough effect; inconclusive means small, poorly fitted or top-dose-only effect; inactive means no such curve, though single readings can be large or run the other way.
Readout type: activity change, negative = inhibition

1) COC(=O)CCC(=O)OC[C@]1(C)CCC[C@@]2(C)C3CC[C@]4(C)C=CC3(CCC12)C4 (stereo partly specified): inactive
2) CCOC(=O)[C@H](CCc1ccccc1)N[C@@H](C)C(=O)N1C2CCCCC2C[C@H]1C(=O)O (stereo partly specified): inactive
3) CCC/C=C/C(=O)O[C@H]1CC(C)(C)CC2[C@@]13[C@H](O)C[C@]1(C)[C@@]2(CCC2[C@@]4(C)CC[C@H](O[C@@H]5O[C@H](C(=O)O)[C@@H](O)[C@H](O[C@@H]6O[C@H](CO)[C@H](O)[C@H](O)[C@H]6O[C@@H]6O[C@@H](C)[C@H](O)[C@@H](O)[C@H]6O[C@@H]6OC[C@](O)(CO)[C@H]6O)[C@H]5O[C@@H]5O[C@H](CO)[C@H](O)[C@H](O)[C@H]5O)C(C)(C)C4CC[C@]21C)O[C@H]3O (stereo partly specified): 11% [at 11.2 µM] (inactive)
4) COc1ccc(CNC(=O)c2cc(-c3cncc(C)c3)ncc2-c2nccs2)nc1OC: inactive
5) N#Cc1cc(-c2ccnc(Nc3ccc(N4CCOCC4)cc3)n2)ccc1OC1CCOCC1: inactive
6) COc1ccc(CCN2CCN(CCCc3ccccc3)CC2)cc1OC: inactive
